Entries and their IC50
assayTarget: Angiotensin I-converting enzyme (ACE) (Homo sapiens, UniProt P12821)
Construct: purchased Dojindo Laboratories ACE kit-WST
Sequence (P12821 30-1306, species assumed): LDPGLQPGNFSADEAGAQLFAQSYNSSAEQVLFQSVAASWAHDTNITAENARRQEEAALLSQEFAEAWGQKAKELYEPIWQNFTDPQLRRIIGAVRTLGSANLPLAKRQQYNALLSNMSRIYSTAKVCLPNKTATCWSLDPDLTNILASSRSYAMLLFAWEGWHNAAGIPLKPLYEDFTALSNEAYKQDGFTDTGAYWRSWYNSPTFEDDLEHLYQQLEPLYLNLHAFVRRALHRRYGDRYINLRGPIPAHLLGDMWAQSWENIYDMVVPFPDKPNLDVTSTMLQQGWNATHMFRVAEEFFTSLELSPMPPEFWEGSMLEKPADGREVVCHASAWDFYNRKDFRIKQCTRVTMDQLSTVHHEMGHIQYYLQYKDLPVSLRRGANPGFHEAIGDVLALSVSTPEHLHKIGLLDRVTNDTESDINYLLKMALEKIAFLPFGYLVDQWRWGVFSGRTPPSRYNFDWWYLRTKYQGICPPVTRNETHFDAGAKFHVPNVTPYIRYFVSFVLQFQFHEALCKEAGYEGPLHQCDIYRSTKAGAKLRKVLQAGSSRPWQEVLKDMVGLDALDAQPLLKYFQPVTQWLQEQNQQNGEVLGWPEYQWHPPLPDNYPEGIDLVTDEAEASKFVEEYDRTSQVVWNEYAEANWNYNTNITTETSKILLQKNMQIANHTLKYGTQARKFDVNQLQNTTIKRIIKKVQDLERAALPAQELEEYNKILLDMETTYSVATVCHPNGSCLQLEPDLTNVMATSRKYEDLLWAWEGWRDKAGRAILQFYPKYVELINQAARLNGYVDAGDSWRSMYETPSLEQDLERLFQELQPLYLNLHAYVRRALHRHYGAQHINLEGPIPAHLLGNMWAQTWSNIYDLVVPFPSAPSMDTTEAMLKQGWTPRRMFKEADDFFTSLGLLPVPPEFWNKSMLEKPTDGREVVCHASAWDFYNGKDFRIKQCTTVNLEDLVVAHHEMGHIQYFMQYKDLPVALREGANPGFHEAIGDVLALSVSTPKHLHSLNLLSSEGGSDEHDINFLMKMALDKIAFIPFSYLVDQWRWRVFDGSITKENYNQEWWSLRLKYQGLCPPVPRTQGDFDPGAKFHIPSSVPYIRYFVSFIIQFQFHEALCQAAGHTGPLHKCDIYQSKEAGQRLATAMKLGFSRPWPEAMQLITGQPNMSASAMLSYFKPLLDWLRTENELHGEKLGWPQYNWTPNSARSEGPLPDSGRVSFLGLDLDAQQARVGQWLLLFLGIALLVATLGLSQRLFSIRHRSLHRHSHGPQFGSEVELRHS
protocolSummary: ACE inhibitory activity assay (ACE kit-WST)
Type: biochemical
appliedConditions: synthesised peptide, absorbance 450 nm, triplicate, mean ± standard deviation
Peptide text beside a SMILES is read from it.
// note: answer is a bare numeric in µM

molecule	unitsText	IC50
CSCC[C@H](NC(=O)[C@H](CO)NC(=O)[C@@H]1CCCN1C(=O)CN)C(=O)N[C@@H](CCCNC(=N)N)C(=O)O [GPSMR] (H-GPSMR-OH)	µM	278

Proceed to the following item.
Look up IC50 for this molecule: CC(C)[C@H](NC(=O)[C@@H]1CCCN1C(=O)[C@H](CCC(=O)O)NC(=O)[C@H](Cc1c[nH]cn1)NC(=O)[C@H](C)N)C(=O)N[C@@H](CCCCN)C(=O)O [AHEPVK] (H-AHEPVK-OH)
62.8
